Origin of measurements: patent US20200079833A1

Below is a list of entries, each paired with its recorded cAMP Primary assay EC50, n1 value.
Target: T1, glucose-dependent insulinotropic peptide (gastric inhibitory polypeptide) receptor (GIPR), primary cAMP assay … (human, UniProt P48546 22-466)
T1 sequence (looked up): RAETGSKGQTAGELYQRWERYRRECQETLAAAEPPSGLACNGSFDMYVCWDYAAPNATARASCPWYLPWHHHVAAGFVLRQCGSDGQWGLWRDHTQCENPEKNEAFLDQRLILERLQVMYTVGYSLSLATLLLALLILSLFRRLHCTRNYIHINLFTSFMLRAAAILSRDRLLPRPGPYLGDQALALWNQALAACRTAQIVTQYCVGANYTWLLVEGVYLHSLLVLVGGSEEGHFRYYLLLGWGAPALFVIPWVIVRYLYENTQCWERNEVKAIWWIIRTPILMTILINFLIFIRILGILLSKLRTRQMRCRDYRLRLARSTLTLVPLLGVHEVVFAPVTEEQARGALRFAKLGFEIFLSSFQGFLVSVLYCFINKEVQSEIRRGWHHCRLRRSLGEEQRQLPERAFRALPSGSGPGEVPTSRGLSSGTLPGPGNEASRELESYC
Test: cell-based or functional assay
Starred links: 1 amine or outer side, 2 acyl side, 3 side chain; linkers in the order of their positions; H or OH if unused. Non-standard residues stand in square brackets, D forms with d. Groups on a side chain read outwards from the residue. Primed or numbered codes have the meaning given here. No end group written: not given here. *: point of attachment. γGlu = O=C(O)[C@H](CCC(=O)[*:2])N[*:1]; αMeF = C[C@](N)(Cc1ccccc1)C(=O)O; αMeK = C[C@](N)(CCCCN)C(=O)O; Lauroyl = CCCCCCCCCCCC(=O)*; αMeS = C[C@](N)(CO)C(=O)O; PEG2′ = not defined here; Aib = CC(C)(N)C(=O)O
Kindly answer with a numeric value in nM, unit omitted.

H[Aib]EGS[αMeF]TSDK([PEG2′-PEG2′-γGlu-Lauroyl])SSYLEK([PEG2′-PEG2′-γGlu-Lauroyl])EAA[αMeK]EFIK([PEG2′-PEG2′-γGlu-Lauroyl])FVVEGG-NH2 [SEQ ID NO: 439]	19.5

Please examine the following record next.
Need cAMP Primary assay EC50, n1 of H[Aib]EGS[αMeF]TSDV[αMeS]SK([PEG2′-PEG2′-γGlu-Lauroyl])LEGK([PEG2′-PEG2′-γGlu-Lauroyl])AA[αMeK]EFIAK([PEG2′-PEG2′-γGlu-Lauroyl])VVEGG-NH2 [SEQ ID NO: 464] , thanks.
20.2
